Hi there, I'd appreciate the recorded inhibition at 1.25 µM for every entry that follows.
- Target system: PARK7 (Homo sapiens)
- Sequence (Q99497 1-189): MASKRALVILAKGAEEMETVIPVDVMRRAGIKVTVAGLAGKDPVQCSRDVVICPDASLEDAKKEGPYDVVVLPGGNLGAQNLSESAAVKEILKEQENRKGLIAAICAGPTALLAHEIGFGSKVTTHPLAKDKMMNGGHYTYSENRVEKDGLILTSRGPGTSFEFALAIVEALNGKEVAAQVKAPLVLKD
- Assay notes: High-throughput screen of the crude compound library, PARK7 fluorescence polarization (FP) assay with FP reagent JYQ-107
- Assay type: biochemical
- Condition details: 1.25 µM, crude compound library; read-out: HTS FP assay %Inhibition (1.25 µM)
Kindly answer with a numeric value in %, unit omitted.

# input compound: N#CN1CC[C@@H](C(=O)Nc2nc3c(s2)CN(C(=O)C2CCN(c4ccc(=O)[nH]n4)CC2)CC3)C1 ; wanted: its inhibition at 1.25 µM
# output 68.2

# input compound: N#CN1CC[C@@H](C(=O)Nc2nc3c(s2)CN(C(=O)Cc2csc(-c4nnc[nH]4)n2)CC3)C1 ; wanted: its inhibition at 1.25 µM
# output 81

# input compound: N#CN1CC[C@@H](C(=O)Nc2nc3c(s2)CN(C(=O)c2ccc(S(=O)(=O)N4CCOCC4)cc2)CC3)C1 ; wanted: its inhibition at 1.25 µM
# output 78.4

# input compound: N#CN1CC[C@@H](C(=O)Nc2nc3c(s2)CN(C(=O)CC2(n4cnnn4)CCOCC2)CC3)C1 ; wanted: its inhibition at 1.25 µM
# output 68.7

# input compound: N#CN1CC[C@@H](C(=O)Nc2nc3c(s2)CN(C(=O)c2cnn(CC4CCCCO4)c2)CC3)C1 (stereo partly shown) ; wanted: its inhibition at 1.25 µM
# output 81.3

# input compound: CN(Cc1cccnc1)S(=O)(=O)c1cc(C(=O)N2CCc3nc(NC(=O)[C@@H]4CCN(C#N)C4)sc3C2)n(C)c1 ; wanted: its inhibition at 1.25 µM
# output 71.9

# input compound: N#CN1CC[C@@H](C(=O)Nc2nc3c(s2)CN(C(=O)c2cc(OCc4ccccc4)ccn2)CC3)C1 ; wanted: its inhibition at 1.25 µM
# output 70.6

# input compound: N#CN1CC[C@@H](C(=O)Nc2nc3c(s2)CN(C(=O)c2ccccc2OCc2ccncc2)CC3)C1 ; wanted: its inhibition at 1.25 µM
# output 68.7

# input compound: N#CN1CC[C@@H](C(=O)Nc2nc3c(s2)CN(C(=O)C2Cc4ccccc42)CC3)C1 (stereo partly shown) ; wanted: its inhibition at 1.25 µM
# output 81

# input compound: N#CN1CC[C@@H](C(=O)Nc2nc3c(s2)CN(C(=O)c2ccc(CNS(=O)(=O)c4ccc(F)c(F)c4F)cc2)CC3)C1 ; wanted: its inhibition at 1.25 µM
# output 81.1
